experiment-notes: growth inhibitors of tim23-1 mutant yeast, primary screen, luminescence, uHTS (AID 463212);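 note: temperature-sensitive mutant grown at 25 °C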
experimental-setup: S. cerevisiae tim23-1 growth, BacTiter-Glo luminescence, 24 h; at 20 µM
The whole screen tested about 330,000 compounds, of which about 4,400 (1.3%) were called active.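 Rule for the calls: active = growth inhibition of the mutant yeast at or above 50%; inactive = the rest.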 The sample holds actives, similar compounds and a random draw of the others, so the mix is not that of the screen.
Entry note: the call must match one of Yes (active), No (inactive)

# molecule, group-label
data = [
    ("CCOC(=O)Nc1ccc2c(c1)N(C(=O)CN1CCN3CCCC3C1)c1ccccc1CC2 (stereo not given)", "No"),
    ("Cc1ccc(Oc2cnn(-c3ccccc3)c(=O)c2Br)cc1", "Yes"),
    ("Cc1ccc(-c2cccc([C@H]3[C@@H]4C=CC[C@@H](C)[C@@H]4C(=O)N3Cc3ccccc3)c2)cc1", "No"),
]

INPUT: Recorded call for `c1ccc(-c2nnc(N3CCOCC3)c3ccccc23)cc1` ?
OUTPUT: No

INPUT: Look up the recorded call for `OCCN1CCN(c2nnc(-c3ccccc3)c3ccccc23)CC1` in this test.
OUTPUT: No

INPUT: GET /call?item= `Cc1cccc(-n2ncc(Cl)c(Cl)c2=O)c1` returns the recorded outcome of this test.
OUTPUT: No

INPUT: I would be grateful if you could indicate the recorded call for CCN(CC)c1ccc(NC(=O)C2CCC(CNc3c(N4CCCC4)c(=O)c3=O)CC2)c(C)c1 (stereo not given) .
OUTPUT: No

INPUT: Per the assay record, what outcome was assigned to CC1CCCN(CCCNC(=O)CN2C(=O)COc3ccc(S(=O)(=O)N4CCOCC4)cc32)C1 (stereo not given) ?
OUTPUT: No

INPUT: Hi team, can someone confirm the assay call for `COc1cccc(NC(=O)COC(=O)CCOc2ccccc2OC)c1` ?
OUTPUT: No

INPUT: How was O=C(c1ccco1)N1CCN(C(=O)C2CCCN(S(=O)(=O)c3cccc4nsnc34)C2)CC1 (stereo not given) classified in this test?
OUTPUT: No

* * *

experiment-notes: growth inhibitors of tim23-1 mutant yeast, primary screen, luminescence, uHTS (AID 463212);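 note: temperature-sensitive mutant grown at 25 °C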
experimental-setup: S. cerevisiae tim23-1 growth, BacTiter-Glo luminescence, 24 h; at 20 µM
Out of some 330,000 compounds screened, about 4,400 (1.3%) were called active.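 How the source made its calls: active means growth inhibition of the mutant yeast at or above 50%; inactive means the rest.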 The list comes from a sample in which actives are over-represented; it also holds close analogues and randomly drawn compounds.
Output constraint: value belongs to TRUE = active, FALSE = inactive

These recorded examples may help you get a feel for the data.
# compound, group-label
records = [
    ("CCCNC(=O)Nc1ccccc1C(=O)Nc1ccc(OC)cc1", "FALSE"),
    ("COc1ccc(NC(=O)Nc2cccc3cccnc23)cc1", "TRUE"),
    ("C=CCNC(=S)N1CCc2[nH]c3ccccc3c2C1", "FALSE"),
    ("O=C(CN1CCC(NC(=O)C2CC2)CC1)Nc1ccccc1[N+](=O)[O-]", "FALSE"),
    ("Nc1nonc1-n1nnc(C(=O)N/N=C/c2c[nH]c3ccccc23)c1-c1ccccc1", "FALSE"),
    ("O=C(O)c1cccc(NC(=S)N/N=C/c2c[nH]c3ccccc23)c1", "FALSE"),
]

INPUT: Hey, what did the test say about `COc1ccc(/C(N)=N/OC(=O)Oc2ccccc2)cc1` ?
OUTPUT: FALSE

INPUT: Returns: the outcome recorded for `COc1ccc(/C=C2/C(=O)OCc3cc(OC)c(OC)cc32)c(OC)c1` in this assay.
OUTPUT: FALSE

INPUT: Tell me the assay call for `COc1ccccc1C1=CC(=O)C[C@H](c2ccc(F)cc2)C1` please.
OUTPUT: FALSE

INPUT: Fill in: this test's call for `CCn1c(SCC(=O)Nc2cc(C)ccc2C)nnc1-c1cnccn1` is ___
OUTPUT: FALSE

INPUT: Field: outcome | Entry: `CCOc1ccc(C(c2c(C)[nH][nH]c2=O)c2c(C)[nH][nH]c2=O)cc1OCC`
OUTPUT: TRUE

INPUT: For `COc1ccc(Oc2cn[nH]c2-c2ccc(OC)cc2O)cc1` , what call appears in the results of this test?
OUTPUT: TRUE

INPUT: Query: recorded result category for CC(C)c1ccc(NC(=S)NC2CC3C=CC2C3)cc1 (stereo not given) in this test
OUTPUT: TRUE

INPUT: Identify the outcome logged in this assay for the compound shown: Cc1ccc(S(=O)(=O)NC(C)C(=O)NCc2ccc(Cl)cc2)cc1 (stereo not given)
OUTPUT: FALSE

INPUT: Any idea what this test logged for `O=C(CCc1ccccc1)NNC(=O)COc1ccc(Cl)cc1` ?
OUTPUT: FALSE

INPUT: What did the test return for `Cc1cccc(-c2nnc(SCC(=O)O)n2Cc2ccccc2)c1` ?
OUTPUT: FALSE

INPUT: Called result for `COc1cccc(NC(=O)CN(C)C(=O)CSCc2nc3scc(-c4cccs4)c3c(=O)[nH]2)c1`
OUTPUT: FALSE

INPUT: Please let me know the test result on file for COc1ccc(C(C(=O)NCC2CCCO2)N(C(=O)Cn2nnc3ccccc32)c2ccc(NC(C)=O)cc2)cc1OC (stereo not given) .
OUTPUT: FALSE

* * *

experiment-notes: growth inhibitors of tim23-1 mutant yeast, primary screen, luminescence, uHTS (AID 463212);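 note: temperature-sensitive mutant grown at 25 °C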
experimental-setup: S. cerevisiae tim23-1 growth, BacTiter-Glo luminescence, 24 h; at 20 µM
About 4,400 (1.3%) of roughly 330,000 compounds were called active.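 How the source made its calls: active means growth inhibition of the mutant yeast at or above 50%; inactive means the rest.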 Only a selection was taken, and actives are over-represented in it overall.
One label from this list, please: active, inactive

# compound, group-label
measured = [
    ("O=C(Nc1ccccc1F)c1ccc(S(=O)(=O)N2CCCCCC2)cc1", "inactive"),
    ("Cc1c(CN2CCC(n3nccc3NC(=O)CCc3ccccc3)CC2)cnn1C", "inactive"),
    ("Cc1ccc(-c2cc(C(=O)N3CCc4ccccc4C3)no2)cc1", "inactive"),
    ("CCN(CC(=O)Nc1cc(Cl)ccc1C)C(=O)CSCc1ccccc1", "inactive"),
    ("COC(=O)CNC(=O)c1cc(-c2ccncc2)nc2ccccc12", "inactive"),
]

INPUT: // outcome(item) with item = `CN(c1ccc(OCC(=O)O)cc1)S(=O)(=O)c1ccc2ccccc2c1`
OUTPUT: inactive

INPUT: So what was the verdict on `N/C(=N\OC(=O)c1cc(-c2ccccc2)nc2ccccc12)c1ccncc1` in this test?
OUTPUT: active

INPUT: Which outcome was entered for the compound COc1ccccc1CNC(=O)C1Cc2ccccc2C(=O)O1 (centres undefined) in this test?
OUTPUT: inactive

INPUT: Recorded test call requested for `NC(=NC(=O)c1ccccc1)C1=C(O)CCC1=O`
OUTPUT: inactive

INPUT: What call does the record list for `Cc1cc2c(cc1C)N(C(=O)CN1C(=O)c3ccccc3C1=O)C(C)(C)c1ssc(=S)c1-2` ?
OUTPUT: inactive

INPUT: Field: outcome | Entry: `CCCCOc1ccc(C(=O)NCC(=O)OCC(=O)c2c(N)n(C)c(=O)n(C)c2=O)cc1`
OUTPUT: inactive

INPUT: Hi, do you know how `CCn1ncc(Br)c1C(=O)Nc1cc(C)ccc1F` came out in this test?
OUTPUT: inactive

INPUT: Identify the outcome logged in this assay for the compound shown: `CC[C@@H]1Cc2cc(O)ccc2C2=C1c1ccc(O)cc1C[C@H]2CC`
OUTPUT: inactive

INPUT: GET /call?item= `CC(=O)C[C@@H](O)CC(=O)[C@H]1OC(=O)CCCCCCc2ccccc21` returns the recorded outcome of this test.
OUTPUT: inactive

INPUT: Status in this test for `O=C(CN(C(=O)c1csnn1)c1ccc(Br)cc1)NC1CCCC1` ?
OUTPUT: inactive

INPUT: For COc1ccccc1CCCNC(=O)C1CCC(=O)N(CCN2CCOCC2)C1 (centres undefined) , which call appears in the assay record?
OUTPUT: inactive

INPUT: # fetch the recorded call for `Cc1cccc(NC(=S)NC23CN4CN(CN(C4)C2)C3)c1` here
OUTPUT: inactive

* * *

experiment-notes: growth inhibitors of tim23-1 mutant yeast, primary screen, luminescence, uHTS (AID 463212);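 note: temperature-sensitive mutant grown at 25 °C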
experimental-setup: S. cerevisiae tim23-1 growth, BacTiter-Glo luminescence, 24 h; at 20 µM; hits give high values
Among all 330,000 compounds or so, about 4,400 (1.3%) were called active. Only a selection was taken, and actives are over-represented in it overall.
Threshold check on inhibition: at or above 20% gives Y, strictly below gives N.

# compound, group-label
data = [
    ("O=S(=O)(Nc1ccc(-c2ccc(N3CCOCC3)nn2)cc1)c1cc(Cl)ccc1Cl", "Y"),
    ("O=C(N/N=C\\c1ccc(-c2ccc(Cl)c(Cl)c2)o1)C(=O)N1CCCC1", "N"),
    ("Cc1c(S(=O)(=O)NCc2ccccc2)c(=O)n(C)c(=O)n1C", "N"),
    ("COc1ccc(Cl)cc1NC(=O)CN(C)C(=O)c1cc(-c2cccs2)nn1-c1ccccc1", "Y"),
    ("Cc1cc(C(=O)COc2ccccc2Cl)c(C)n1C1CC1", "Y"),
]

INPUT: Form field: inhibition at least 20%? Entry: `O=C1CSC(=S)N1c1ccc(Cl)c(Cl)c1`
OUTPUT: Y

INPUT: Threshold query (inhibition >= 20%) on `COc1cc(N2C(=O)CSC2=S)cc(OC)c1OC`
OUTPUT: Y

INPUT: Confirm if inhibition reported for the compound `COc1ccc(N2CCN(C(=O)/C(C#N)=C/c3ccccc3)CC2)cc1` is 20% or above.
OUTPUT: Y

INPUT: Quick check, inhibition >= 20%? COc1ccc(/C=C(\C#N)C(=O)OCC(=O)N(C)C2CCS(=O)(=O)C2)cc1 (stereo unspecified)
OUTPUT: N

INPUT: Hi, just wondering whether `Cc1[nH]n(C(N)=S)c(=O)c1N=Nc1ccc(Cl)cc1Cl` shows inhibition of 20% or higher.
OUTPUT: Y

INPUT: In plain terms: is recorded inhibition at least 20% for `CCSC1=C(C#N)C(=O)n2c1cc1c2CCCC1` ?
OUTPUT: Y
